# measurementNotes: in vitro
# settings: human, hela cells, % viability
Provide the reported viability at 28.5 h, 10 µM of each item.
Answers are plain numbers, in %.

O=C(O)CCn1cc(Br)c([N+](=O)[O-])n1 [CBK286916] :: 90
O=C(O)COc1ccc(NC(=O)c2ccc3c(c2)C(=O)N(CC2CCCO2)C3=O)cc1 (centres unmarked) [CBK263719] :: 92.5
CN1CCN(C(=O)c2ccc(-c3cccc(C(=O)NCCO)c3)nc2N(C)C)CC1 [CBK076581] :: 91.8
CCOc1ccccc1NC(=O)Nc1cccc(S(N)(=O)=O)c1 [CBK057282] :: 91.3

We next turn to a different compound, shown below.
Ask: GET /values?readout=viability at 28.5 h, 10 µM&item= O=C(CSc1nnc(Cc2cccs2)n1-c1ccccc1)Nc1ccc(F)c(Cl)c1 [CBK267589]
Reply: 92.3

====

# measurementNotes: in vitro
# settings: human, hela cells, % viability
quantityName: viability at 28.5 h, 10 µM
Please append the unit to your numeric answer.

COC(=O)c1cscc1NC(=O)c1cnc(-c2cccc(C)c2)c(-c2ccc(C(C)=O)s2)c1 :: 85.4%
CN(C)[C@H]1CC[C@@H](Cc2ccccc2)C[C@@H]1NC(=O)c1ccc(Cl)c(Cl)c1 :: 97.3%
O=C(Cn1cc(C(=O)COc2ccccc2)c2ccccc21)Nc1ccccc1 :: 110%
COCCCn1c(N)c(C(=O)NCC(C)C)c2nc3ccccc3nc21 :: 84.9%
CC(C)(C)c1cn(C[C@H]2CC3CCN2C[C@@H]3C(=O)N2CCOCC2)nn1 (stereo partly shown) :: 87.8%

Consider the following items and state reported viability at 28.5 h, 10 µM for each.
1. CCOC(=O)c1cnc(SCc2cccc([N+](=O)[O-])c2)nc1N
2. CCc1nc(-c2ccc(C)c(S(=O)(=O)N3CCN(c4ccccc4)CC3)c2)no1
3. COc1cc([N+](=O)[O-])ccc1NC(=S)NNS(=O)(=O)c1cc(Cl)c(Cl)cc1Cl
4. CCC1C(=O)NCCN1C(=O)c1cc2cc(C)ccc2n1C (stereo not shown)
5. Cc1nc(C2CCCN(C(=O)C3CCCO3)C2)c2sccn12 (stereo not shown)
6. Cn1c(=O)c2c(nc(NCCO)n2CCc2ccccc2)n(C)c1=O

Reply:
95%
98.3%
96.2%
110%
106%
87.8%

Consider the following items and state reported viability at 28.5 h, 10 µM for each.
1. CCCn1nnc(NC(=O)COc2ccc3ccccc3c2)n1
2. CC1(CC(=O)Nc2ccccc2)NC(=S)N(c2ccccc2)N1 (stereo not shown)

Reply:
1. 101%
2. 105%

====

# measurementNotes: in vitro
# settings: human, hela cells, % viability
quantityName: viability at 28.5 h, 10 µM (%)
Give bare numbers, in %.

For orientation, consider the following solved cases.
COc1ccc(NC(=O)CSc2nc3ccccc3n2-c2ccccc2)c([N+](=O)[O-])c1 [CBK266060] :: 91.8
CC(=O)N1CCN(c2c(-c3ccccc3)nnc3ccccc23)CC1 [CBK066889] :: 91.2
O=C(c1cc(F)cc(F)c1)N1CCC(c2cccnc2)CC1 [CBK283892] :: 87.5
Cc1cc(C)c2c(C(C)(C)C)nn(-c3ccc(C(=O)O)cc3)c2n1 [CBK267481] :: 88.4
CC(=O)Nc1ccc(-n2cc(COC3CCN(C(=O)OC(C)(C)C)CC3)nn2)cc1 [CBK149481] :: 121

Consider the following items and state reported viability at 28.5 h, 10 µM for each.
1. CC1(C)Cc2c(ccc3ccccc23)C(CCN2CCCCC2)=N1 [CBK261746]
2. Cn1c(=O)c2c(ncn2CC(=O)Nc2ccc(Cl)cc2Cl)n(C)c1=O [CBK133227]
3. COC(=O)c1c(NC(=O)CSc2nc[nH]n2)sc2c1CCCC2 [CBK267222]
4. Cc1cc(N2CCCC2=O)cc(C)c1S(N)(=O)=O [CBK288458]
5. Cc1cccc(-c2cc(C(=O)O)c(C)o2)c1 [CBK045855]
6. Cc1cnc(CNS(=O)(=O)c2ccc(C(C)C)cc2)cn1 [CBK044615]
7. Cc1nc(NS(=O)(=O)Cc2ccccc2)sc1C(=O)O [CBK045552]
8. O=C(c1nccs1)C1CCN(C(=O)c2ccccc2F)CC1 [CBK284174]

Reply:
[116, 86, 81.6, 89.9, 87.7, 118, 110, 93.3]

Consider the following items and state reported viability at 28.5 h, 10 µM for each.
1. CCn1cc(C2CN(S(=O)(=O)c3c(C)c(C)cc(C)c3C)CCO2)cn1 (stereo not drawn) [CBK306171]
2. CC(=O)Nc1ccc(NC(=O)CCCC(=O)O)cc1 [CBK260984]
3. Cc1ccc2[nH]c(C3CCCCN3C(=O)c3ccncc3)nc2c1 (stereo not drawn) [CBK284000]

Reply:
[63.8, 104, 103]

Consider the following items and state reported viability at 28.5 h, 10 µM for each.
1. COc1cccc(Cn2c(C3CCNCC3)cc3cccnc32)c1 [CBK285076]
2. Cc1n[nH]c(C)c1CCC(=O)N/N=C/c1ccccn1 [CBK262887]

Reply:
[91.5, 92.9]

====

# measurementNotes: in vitro
# settings: human, hela cells, % viability
quantityName: viability at 28.5 h, 10 µM (%)
Answers are plain numbers, in %.

For orientation, consider the following solved cases.
Cc1noc(C)c1NC(=O)c1ccc2nccnc2c1 :: 84.1
CC(=O)Nc1cc(C)c(C)cc1NC(C)=O :: 97.5
Cc1nnc(Sc2cccc(C(F)(F)F)n2)s1 :: 95.4
O=C(N/N=C/c1ccc[nH]1)C1CC1c1ccccc1 (stereo not drawn) :: 98.8
COc1ccc(-c2ccc(=O)n(CC(=O)NCc3ccc(C(=O)O)cc3)n2)c(F)c1 :: 91.5
C=CCS(=O)(=O)N1CCC(c2nc(C)n3c(C)csc23)CC1 :: 80

Consider the following items and state reported viability at 28.5 h, 10 µM for each.
1. CC(C)[C@H](CO)Nc1nc(-c2cccc(OC(F)(F)F)c2)cnc1N
2. Cc1cc(C)n2nc(C(=O)N/N=C/c3ccc(O)cc3)nc2n1
3. CCc1c(C)nc2ccc(NC(C)=O)cc2c1SCCC(=O)O [CBK159465T]
4. O=C(O)c1ccc(N2C(=O)CC(N3CCN(C/C=C/c4ccccc4)CC3)C2=O)cc1 (stereo not drawn)
5. Cc1cc(N2C[C@H](CO)OC2=O)ccc1C#N
6. CC(=O)Nc1cc(S(N)(=O)=O)c(F)cc1C
7. Cc1cc(N2CCN(C(=O)CCc3ccsc3)CC2)nc(C(C)C)n1
8. Cc1cc(C)nc(N/C(=N/C(=O)Cc2ccccc2)N2CCC(C(N)=O)CC2)n1

Reply:
85.7
85.4
98.7
92.6
116
94.1
113
107

Consider the following items and state reported viability at 28.5 h, 10 µM for each.
1. CC1CCN(S(=O)(=O)c2cccc3c(S(=O)(=O)N4CCC(C)CC4)cccc23)CC1
2. CCOC(=O)CN1C(=O)S/C(=C/c2ccc(OCc3ccc(Br)cc3)cc2)C1=O
3. CC(=O)c1cc(C(=O)Nc2cnn(Cc3ccc(F)cc3)c2)cs1
4. O=C(c1ccccc1)N1C[C@H](c2ccc(F)cc2)[C@H]2CN(Cc3ccccc3F)CC[C@H]21
5. CSc1nsc(SCC(=O)Nc2cccc(NC(C)=O)c2)n1

Reply:
1. 98.2
2. 99.1
3. 104
4. 90.1
5. 93.2

Consider the following items and state reported viability at 28.5 h, 10 µM for each.
1. CCOC(=O)N1CCN(C2CCCN(Cc3c(C)nn(C)c3Cl)C2)CC1 (stereo not drawn)
2. CC(C)(C)n1cc(NC2CCN(c3ccc(C#N)cc3)C2=O)cn1 (stereo not drawn)
3. Fc1ccc2c3c([nH]c2c1)C1(CCN(Cc2cc(F)c(F)c(F)c2)CC1)NCC3

Reply:
96.2
85.7
108

====

Provide the reported viability at 28.5 h, 10 µM of each item.
# measurementNotes: in vitro
# settings: human, hela cells, % viability
Numbers only, in %.

CC(C)c1csc(CNC(=O)NC2CCCN(c3ccn(C)n3)C2=O)n1 (stereo not drawn) :: 83.6
O=C1S/C(=C/c2ccc(Cl)cc2)C(=O)N1c1ccc(F)cc1 :: 102
NNc1nc(-c2ccc(Br)cc2)nc2ccccc12 :: 94.6
CN1CCC(OC(=O)COc2ccc(Cl)cc2Cl)CC1 [CBK266389C] :: 91
Nc1cc(-c2ccccc2)nn1-c1ccc(C(=O)O)cc1 :: 84.9

Consider the following items and state reported viability at 28.5 h, 10 µM for each.
1. Oc1ccc(Cl)cc1/C=N/c1ccc(-c2cc(-c3ccc(/N=C/c4cc(Cl)ccc4O)cc3)ncn2)cc1
2. CNC(=O)CN(C)C(=O)c1coc(COc2ccc3sc(C)nc3c2)n1
3. C[C@@H]1CN2CCCC2CN1Cc1ccc(N(C)C)cc1 (stereo partly drawn)
4. CNC(=O)C(NC(=S)NC(=O)c1ccc(F)cc1)C(C)(C)C (stereo not drawn)
5. Cc1cc(-c2cn3cc(C(=O)N(C)CC(C)O)nc3c(=O)n2C)c(C)o1 (stereo not drawn)

Reply:
1: 101; 2: 83.1; 3: 101; 4: 109; 5: 88

Consider the following items and state reported viability at 28.5 h, 10 µM for each.
1. CCC(c1ccc2ccccc2c1)c1c(O)c2ccccc2oc1=O (stereo not drawn)
2. Cc1nc(N)sc1-c1csc(Nc2ncccn2)n1 [CBK263307B]

Reply:
1: 96.7; 2: 108
